Provenance of the data: ChEMBL document CHEMBL1201862

Quick list: GI50 per entry.
System: HOP-92
Test: NCI tumour cell line growth inhibition, 48 h
Calls of active or inactive are those of the source. Cut-off read from the data, not from the text of the source: active = GI50 up to about 1.1 µM and inactive = higher.
PROPERTY_MEASURED: GI50

1. CCCCCCCCCCCCC1NC(=N)NC2(CCCO2)C1C(=O)OC (stereo not drawn)
5.09 µM (inactive)
2. O=C(c1cccnc1)N1N=C(c2ccccc2)CC1(O)c1cc(F)c(Cl)cc1Cl (stereo not drawn)
20.7 µM (inactive)
3. O=C(Cc1ccccc1)NNc1nc(NNC(=O)c2ccncc2)nc(Nc2cccc(Cl)c2)n1
> 10 µM (inactive)
4. C/C=C1/C(=O)O[C@]23C=C[C@@H]4C(C(=O)OC)=CO[C@H](O[C@@H]12)[C@@H]43 [PLUMERICIN]
1.61 µM (inactive)
5. CNc1ccc(-c2nc3cc(C)ccc3o2)cc1
84.9 µM (inactive)
6. CCOC(=O)NC(=O)c1cn(CCCCCCCCCCC(=O)N2CCN(CCn3cc(C(=O)NC(=O)OCC)c(=O)[nH]c3=O)CC2)c(=O)[nH]c1=O
> 100 µM (inactive)
7. O=C(CCc1cccc(O)c1)NCCc1ccc(O)cc1
> 100 µM (inactive)
8. Cc1ccc(S(=O)(=O)ON2C(=O)c3cccc4cc([N+](=O)[O-])cc(c34)C2=O)cc1
50.5 µM (inactive)
9. C=C(C)[C@@H](O)[C@H](O)C[C@H](C)C1CC[C@]2(C)C1=CC[C@@H]1[C@@]3(C)CC[C@@H](OC(C)=O)C(C)(C)[C@@H]3C[C@@H](OC3OC(COC(C)=O)C(O)C(O)C3O)[C@]12C (stereo partly drawn)
2.37 µM (inactive)
10. O=Cc1ccccc1OCCOc1cc(OCCOc2ccccc2C=O)c(OCCOc2ccccc2C=O)cc1OCCOc1ccccc1C=O
26.2 µM (inactive)
11. O=C(NC(=O)c1cn(CCN2CCN(C(=O)NCCCCCCNC(=O)N3CCN(CCn4cc(C(=O)NC(=O)OCc5ccccc5)c(=O)[nH]c4=O)CC3)CC2)c(=O)[nH]c1=O)OCc1ccccc1
> 100 µM (inactive)
12. O=S1(=O)COc2ccccc2-c2ncncc21
> 100 µM (inactive)
13. CC(C)(C)C(=O)C(C(=O)C(C)(C)C)C(=O)C(C)(C)C
> 100 µM (inactive)
14. CC1(C)CCC[C@]2(C)[C@H]3[C@H](C#N)c4cc(O)c(O)cc4O[C@@]3(C)CC[C@@H]12
> 10 µM (inactive)
15. CC(=O)NC(CCCCN(Cc1ccccc1)C(=O)NCCCl)C(=O)NCc1ccccc1 (stereo not drawn)
> 100 µM (inactive)
16. Cc1cc(C)c(S(=O)(=O)N(CCCCCN)OCCCN)c(C)c1
15.9 µM (inactive)
17. O=C(CCl)NNC1=Nc2ccc(Cl)cc2SC1
1.63 µM (inactive)
18. CCCCN(c1ccccc1)c1ncnc2c1cnn2C
25.7 µM (inactive)

###

System: IGROV-1
Assay: NCI tumour cell line growth inhibition, 48 h
Activity calls are given as the source filed them. Cut-off read from the data, not from the text of the source: active = GI50 up to about 1.1 µM and inactive = higher.
PROPERTY_MEASURED: GI50

1) CCOC(=O)c1cc(C2CCN(c3ccccc3)C2=O)c(C(=O)/C=C(/C)O)[nH]1 (stereo not given)
> 100 µM (inactive)
2) NC(=O)N/N=C(\CC1OC(=O)c2ccccc21)c1ccc([N+](=O)[O-])cc1 (stereo not given)
23.7 µM (inactive)
3) O=C1c2ccccc2-c2nc(-c3cccc([N+](=O)[O-])c3)nnc21
28.8 µM (inactive)
4) C/C(=C\COc1cc(O)c2c(c1)C(=O)c1cc(C)cc(O)c1C2=O)CCC1OC1(C)C (stereo not given)
68.9 µM (inactive)
5) COC(Cc1cc(C(O)(c2ccc(C(C)(C)C)cc2)c2cc(CC(OC)(c3cc(C(OC)(c4ccc(C(C)(C)C)cc4)c4ccc(C(C)(C)C)cc4)c(C)cc3C)c3cc(C(OC)(c4ccc(C(C)(C)C)cc4)c4ccc(C(C)(C)C)cc4)c(C)cc3C)c(C)cc2C)c(C)cc1C)(c1cc(C(OC)(c2ccc(C(C)(C)C)cc2)c2ccc(C(C)(C)C)cc2)c(C)cc1C)c1cc(C(OC)(c2ccc(C(C)(C)C)cc2)c2ccc(C(C)(C)C)cc2)c(C)cc1C
> 75 µM (inactive)
6) O=Cc1ccccc1OCCOc1cc(OCCOc2ccccc2C=O)c(OCCOc2ccccc2C=O)cc1OCCOc1ccccc1C=O
> 62.8 µM (inactive)
7) Cc1ccc([N+](=O)[O-])cc1S(=O)(=O)Nc1ccc(C2=NNC(c3ccccc3O)C2)cc1 (stereo not given)
40.7 µM (inactive)
8) O=C(O)/C=C/c1nc2ccccc2c(=O)o1
> 100 µM (inactive)
9) CN1N=C2c3ccccc3CC[C@H]2C1c1cccc(O)c1 (stereo not given in full)
> 100 µM (inactive)
10) COc1ccc(OC)c2c1C[C@@H]1C(C#N)N3[C@H](Cc4c(OC)ccc(OC)c4[C@@H]3C)C(=O)N1[C@H]2C (stereo not given in full)
4.56 µM (inactive)
11) COC(=O)/C=C/CCC#Cc1ccccc1C#CCC/C=C/C(=O)OC
4.88 µM (inactive)
12) CC(C)=CCN1CC(C)C(=O)Nc2cc(Cl)ccc21 (stereo not given)
24.3 µM (inactive)
13) NCCCSCC(=O)O
> 100 µM (inactive)
14) CN(C)C(=O)Nc1cc2c3c(c1)CCCN3CCC2
> 10 µM (inactive)
15) CCN(CC)CCCNc1ccc2nnn3c4ccc(O)cc4c(=O)c1c23
4.86 µM (inactive)
16) CC(=O)NC1=C(C)C(=O)c2c(nc3n2CCC3O)C1=N (stereo not given)
18.7 µM (inactive)
17) Oc1cc(-c2ccc3ccccc3c2)nc2ncccc12
6.4 µM (inactive)
18) CCOC(=O)c1cn2c(n1)sc1cc(OC)ccc12
26.7 µM (inactive)
19) Cc1cc(C)c(S(=O)(=O)N(CCCCCN)OCCCN)c(C)c1
13.9 µM (inactive)
20) COc1cccc(-c2cc(O)c3cc(N)ccc3n2)c1
5.06 µM (inactive)
